# Measurement description: Pharmacokinetic profile in mice after I.V. injection (LC-MS/MS of plasma, brain, liver, kidney)
# Type: in vivo, mouse
# Condition parameters: male, C57BL/6, mouse, iv; plasma, 50 mg/kg I.V.; read-out: AUC24h
Measured quantity: AUC(0-t) (ng·h/mL)
One number for each entry, in ng·h/mL.

For COc1cc(CC(=O)Nc2cc(C3CCC3)[nH]n2)cc(OC)c1OC [25–106] , what is its reported AUC(0-t)? 6930

---

# Measurement description: Pharmacokinetic profile in mice after I.V. injection (LC-MS/MS of plasma, brain, liver, kidney)
# Assay type: in vivo, mouse
# Condition parameters: male, C57BL/6, mouse, iv; plasma, 50 mg/kg I.V.; read-out: Clast
Measured quantity: concentration at 24 h (ng/mL)
Give bare numbers, in ng/mL.

For "COc1cc(CC(=O)Nc2cc(C3CCC3)[nH]n2)cc(OC)c1OC" , what is its reported concentration at 24 h? 69.7

---

# Measurement description: Pharmacokinetic profile in mice after I.V. injection (LC-MS/MS of plasma, brain, liver, kidney)
# Assay type: in vivo, mouse
# Condition parameters: male, C57BL/6, mouse, iv; kidney, 50 mg/kg I.V.; read-out: AUC24h
Measured quantity: AUC(0-t) (ng·h/mL)
One number for each entry, in ng·h/mL.

For COc1cc(CC(=O)Nc2cc(C3CCC3)[nH]n2)cc(OC)c1OC [25–106] , what is its reported AUC(0-t)? 7640

---

# Measurement description: Pharmacokinetic profile in mice after I.V. injection (LC-MS/MS of plasma, brain, liver, kidney)
# Format: in vivo, mouse
# Condition parameters: male, C57BL/6, mouse, kidney, iv, 50 mg/kg, kidney, 50 mg/kg I.V.; read-out: Cmax
Measured quantity: Cmax (ng/g)
Numbers only, in ng/g.

For "COc1cc(CC(=O)Nc2cc(C3CCC3)[nH]n2)cc(OC)c1OC" , what is its reported Cmax? 1190

---

# Measurement description: Pharmacokinetic profile in mice after I.V. injection (LC-MS/MS of plasma, brain, liver, kidney)
# Format: in vivo, mouse
# Condition parameters: male, C57BL/6, mouse, iv; brain, 200 mg/kg I.V.
Measured quantity: half-life

For COc1cc(CC(=O)Nc2cc(C3CCC3)[nH]n2)cc(OC)c1OC [25–106] , what is its reported half-life? 4.39 h

---

# Measurement description: Pharmacokinetic profile in mice after I.V. injection (LC-MS/MS of plasma, brain, liver, kidney)
# Type: in vivo, mouse
# Condition parameters: male, C57BL/6, mouse, plasma, iv, 10 mg/kg, plasma, 10 mg/kg I.V.; read-out: Cmax
Measured quantity: Cmax (µg/mL)
One number for each entry, in µg/mL.

For "COc1cc(CC(=O)Nc2cc(C3CCC3)[nH]n2)cc(OC)c1OC" , what is its reported Cmax? 2.57

---

# Measurement description: Pharmacokinetic profile in mice after I.V. injection (LC-MS/MS of plasma, brain, liver, kidney)
# Format: in vivo, mouse
# Condition parameters: male, C57BL/6, mouse, iv; kidney, 100 mg/kg I.V.; read-out: Ke (converted)
Measured quantity: k el (s⁻¹)
One number for each entry, in s⁻¹.

For "COc1cc(CC(=O)Nc2cc(C3CCC3)[nH]n2)cc(OC)c1OC" , what is its reported k el? 1.67e-05
